Taken from the supplement of paper PMC12042874.

experiment: amyloid nucleation score (Sup35N fusion, yeast selection) (log enrichment); library NNK3; higher = more nucleation; inactive = no reads after selection;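 also: zero at mode of non-aggregating sequences after 7 days selection at 30°C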
measurement_type: amyloid nucleation score

Answered cases to consult:
INSERT INTO measurements (sequence_input, measurement_type, result) VALUES
  ('YCAGWFFMFSV', 'amyloid nucleation score', 0.586),
  ('LIDKCGKHQTFMGC', 'amyloid nucleation score', 'inactive'),
  ('VKWLLGMSEWKG', 'amyloid nucleation score', -0.877),
  ('VVLFKISSYPRHIHFGFHLL', 'amyloid nucleation score', 'inactive'),
  ('LTWKFSATCIGVKT', 'amyloid nucleation score', 'inactive');

Hey, quick one: what's amyloid nucleation score for each of these?
1. PLNNGHLLSMPICKIRLVKA
2. GLLPSKKILFLAILTHNRCW

Output:
1. inactive
2. inactive
